biological target: T1, PCSK9Δhelix (human, Chemically biotinylated in the phage ELISAs; the site is not given.); experiment: phage spot ELISA
T1 construct: construct M1-Q692 with engineered TEV site, cleaved by TEV; also called His-PCSK9Δhelix; open groove PCSK9Δhelix
T1 sequence (prodomain, as listed by the source mutant limits assumed, chain 1 of 2): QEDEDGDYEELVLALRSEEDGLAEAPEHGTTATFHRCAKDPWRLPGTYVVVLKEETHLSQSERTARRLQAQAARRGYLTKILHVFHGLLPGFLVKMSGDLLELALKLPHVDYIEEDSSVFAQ
T1 sequence (chain, as listed by the source mutant limits assumed, chain 2 of 2): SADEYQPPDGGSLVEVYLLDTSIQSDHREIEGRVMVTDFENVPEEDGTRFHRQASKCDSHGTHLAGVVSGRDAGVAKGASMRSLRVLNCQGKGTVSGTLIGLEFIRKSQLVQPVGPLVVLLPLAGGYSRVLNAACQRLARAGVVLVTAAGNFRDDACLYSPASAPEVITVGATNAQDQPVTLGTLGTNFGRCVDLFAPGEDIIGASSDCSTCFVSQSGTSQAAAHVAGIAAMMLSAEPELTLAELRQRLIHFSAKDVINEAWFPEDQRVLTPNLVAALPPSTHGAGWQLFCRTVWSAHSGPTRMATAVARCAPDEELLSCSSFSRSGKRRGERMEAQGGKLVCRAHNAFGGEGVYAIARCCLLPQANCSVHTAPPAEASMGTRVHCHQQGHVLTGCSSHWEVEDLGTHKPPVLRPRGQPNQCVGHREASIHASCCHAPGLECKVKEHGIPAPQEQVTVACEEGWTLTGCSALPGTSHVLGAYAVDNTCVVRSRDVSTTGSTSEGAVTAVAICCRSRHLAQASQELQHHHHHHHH
Assign s/n to each entry below.

query: What measured s/n goes with SGNALWNHDRLT [SEQ ID NO 379] ?
result: 7.07

query: What measured s/n goes with SGCWTYLRGGCSVT [SEQ ID NO 373] ?
result: 5.37

query: What measured s/n goes with SGNCWSSLRGICENLG [SEQ ID NO 367] ?
result: 5.2

query: What measured s/n goes with SGACLNHFVSGNMIRC [SEQ ID NO 371] ?
result: 5.55

query: What measured s/n goes with SGAGKLDLSG [SEQ ID NO 377] ?
result: 4.17

query: What measured s/n goes with SGGCVKYRGSVSCQESKT [SEQ ID NO 369] ?
result: 3.37

query: What measured s/n goes with SGDTRSQLSH [SEQ ID NO 376] ?
result: 11.3

query: What measured s/n goes with SGPRTYLRGLVD [SEQ ID NO 366] ?
result: 3.44
